Property: solubility kinetic; scope: individual compounds
conditions: buffer; pH 7.4; 200.0 µM

CNC(=O)CSc1nnc(-c2ccccc2)n1C    > 39.3 µg/mL
Cc1ccc(NS(=O)(=O)N2CCOCC2)cc1    > 38.4 µg/mL
Cl.O=C(OCCN1CCOCC1)c1cccc(F)c1    > 43.5 µg/mL
O=C1CN(C(=O)c2ccccc2C(=O)O)c2ccccc2N1    > 44.4 µg/mL
O=C(COc1ccccc1Cl)Nc1ccc(N2CCCC2)cc1    < 0.4 µg/mL
N#Cc1c(N)nc2c(c1N)CC(C(F)(F)F)O2 (stereo not drawn)    > 36.6 µg/mL
COc1cc(NS(=O)(=O)c2ccc(NC(=O)/C=C/C(=O)O)cc2)nc(OC)n1    > 61.3 µg/mL
CCn1c(=O)c2c(nc(SCC(=O)NC3CCCC3)n2C)n(C)c1=O    > 54.8 µg/mL
CC1CCC(NC(=O)CN(C)S(=O)(=O)c2cnc[nH]2)CC1 (stereo not drawn)    > 47.2 µg/mL
CC(C)CNC(=O)CSc1nnc2ccccn12    > 39.7 µg/mL

Entry Cc1ccc(C)c(NC(=O)CN(C)C(=O)CC2OC(=O)c3ccccc32)c1 (stereo not drawn) ; solubility kinetic = > 55 µg/mL

The compound listed as COCCNC(=O)Cn1nc(-c2ccccc2F)ccc1=O has a reported solubility kinetic of > 45.8 µg/mL

Documented solubility kinetic of C[C@H](NS(=O)(=O)c1ccccc1F)C(=O)OCC(=O)Nc1ccc2c(c1)OCCO2 : > 65.8 µg/mL

###

conditions: buffer; pH 7.4; 200.0 µM
The reader will find reported solubility kinetic values listed item by item below.

Take a look at these entries with their results.
CCOc1ccc(/C=C2\SC(=S)N(C)C2=O)cc1OC    < 0.7 µg/mL
N#CC1(NC(=O)CN2CCc3ccccc3C2)CCCC1    > 42.5 µg/mL
Cc1cccnc1NC(=O)c1ccc2c(c1)OCO2    > 38.4 µg/mL
CCNC(=O)C(=O)c1c(-c2ccccc2)[nH]c2ccccc12    > 43.9 µg/mL
COc1ccccc1NC(=O)c1ccc2c(c1)C(=O)N(Cc1ccco1)C2=O    < 0.4 µg/mL

Documented solubility kinetic of CCNC(=O)COC(=O)/C=C/c1cccs1 : > 35.9 µg/mL

compound CCOC(=O)C(=O)N1CCC(C(=O)OCC)CC1 , solubility kinetic observed: > 38.6 µg/mL

The reported value for CC(=O)N[C@@H](CC(=O)O)C(=O)O in terms of solubility kinetic is > 26.3 µg/mL

In plain terms, Cc1cc(C)c(C#N)c(SCc2ccc([N+](=O)[O-])cc2)n1 has a documented solubility kinetic of < 0.2 µg/mL

###

details: buffer; pH 7.4; 200.0 µM
Here the recorded solubility kinetic is given for each entry.

Form: molecule = Cc1[nH]c2ccccc2c1SCC(=O)NC1CCCCC1 ; solubility kinetic = > 45.4 µg/mL

Kindly note the recorded solubility kinetic for CN(CC(=O)OCC(N)=O)S(=O)(=O)c1ccc(Cl)cc1 , which is > 48.1 µg/mL

// sample COc1ccc(CN2CCS(=O)(=O)CC2)cc1OC , its solubility kinetic was > 42.8 µg/mL

###

conditions: buffer; pH 7.4; 200.0 µM
Each entry below lists one item and its recorded solubility kinetic value.

// sample Cc1cccc(/N=C/C2=C(O)CC(C)(C)CC2=O)n1 , its solubility kinetic was > 38.7 µg/mL

solubility kinetic reading for CCC(=O)Nc1ccc2c(c1)ncn2-c1ccc(C)cc1 : > 41.9 µg/mL

Field solubility kinetic (entry O=C(COC(=O)C1CC1)NC(=O)NCc1ccccc1 ) reads > 41.4 µg/mL

Short answer for O=C(NC1CCCCC1)c1cc(C2CC2)on1 : solubility kinetic was > 35.1 µg/mL

response.value for CCOCCCNC(=O)c1ccc(C2SCC(=O)N2Cc2ccccc2)cc1 (stereo not given) (field: solubility kinetic) = > 59.8 µg/mL

The reported solubility kinetic of the compound N#Cc1ccccc1S(=O)(=O)N1CCN(C(=O)C2CCCCC2)CC1 was > 54.2 µg/mL

Cn1c(C(=O)N2CCOCC2)cc2c(=O)n3ccccc3nc21 yielded solubility kinetic of > 46.8 µg/mL

Form field solubility kinetic, entry Nc1ncc2c(n1)-c1ccoc1CC2 : > 28.1 µg/mL

Record summary for CN(Cc1ccccc1)S(=O)(=O)c1ccc(NC(=O)C2CCCCC2C(=O)O)cc1 (stereo not given) : reported solubility kinetic = > 64.6 µg/mL

###

conditions: buffer; pH 7.4; 200.0 µM
READOUT TYPE: log10(solubility kinetic) (log10 of the value in mg/mL)
Transform log10 | Measure solubility kinetic | Unit mg/mL

Completed entries (count: 4):
Cc1ccc2nc(Cn3cc(C(F)(F)F)ccc3=O)cc(=O)n2c1    -1.32
COc1cc(C(=O)NC(=S)N2CCCCCC2)cc(OC)c1OC    -1.80
N#Cc1ccc(NC(=O)CCNC(=O)c2ccco2)cc1Cl    -2.30
CC1CCCN(S(=O)(=O)c2ccc(Cl)s2)C1 (centres undefined)    -1.97

Recorded log10(solubility kinetic) (compound COCCn1c(C)cc(C(=O)COC(=O)CNC(=O)c2ccco2)c1C ): -1.34

The reported log10(solubility kinetic) of the compound C=CCc1c(C)nc(SCc2ccccc2)[nH]c1=O was -1.98

Entry COc1ccc(C2=CSC3=NCCN23)cc1Cl — recorded log10(solubility kinetic) = -1.42

# compound O=C(Nc1ccc(O)cc1)c1ccc(NC(=O)c2ccco2)cc1 ; its log10(solubility kinetic) = -2.74

###

conditions: buffer; pH 7.4; 200.0 µM
READOUT TYPE: solubility kinetic

C=CCSc1nc(N)cc(=O)[nH]1    > 27.5 µg/mL
Cc1cccc(C(=O)NCCCNC(=O)c2ccccn2)c1    > 44.6 µg/mL
Nc1c(C(=O)Nc2ccccc2)sc2ncc([N+](=O)[O-])cc12    < 0.2 µg/mL
O=[N+]([O-])c1cc([N+](=O)[O-])c2nonc2c1Nc1ccccc1O    > 47.6 µg/mL
c1ccc(CN2CCN(Cc3c[nH]c4ccccc34)CC2)cc1    > 45.8 µg/mL

// next item, solubility kinetic requested
Note to self: solubility kinetic recorded for COc1ccc(NC(=O)NS(=O)(=O)c2ccc(C)cc2)cc1OC was > 52.6 µg/mL

###

log10 of solubility kinetic listing for selected molecules.
details: buffer; pH 7.4; 200.0 µM
Note: values are log10 of solubility kinetic expressed in µg/mL.

Examples with their reported log10 of solubility kinetic follow.
O=C(NCC1CCCCC1)c1cccc([N+](=O)[O-])c1    1.31
COc1ccc(CCc2nc(-c3cccs3)no2)cc1    0.36
Nc1nonc1C(=O)NCCNC(=O)c1cccc(Cl)c1    1.66
CCC(=Nc1ccccc1N)c1c(O)[nH]c(=O)[nH]c1=O    0.75
Oc1ccc(C(=S)N2CCN(c3cccc(Cl)c3)CC2)cc1    0.11

In plain terms, Cc1cc(/C=C(\C#N)C(=O)OCC#N)c(C)n1CC(C)C has a documented log10 of solubility kinetic of 1.13

Please fill in: log10 of solubility kinetic reported for CCOC(=O)C1=C(C)NC(C)=C(C(=O)OC)C1c1ccco1 (configuration not stated) = 1.53

###

Each item that follows carries a reported solubility kinetic.
details: buffer; pH 7.4; 200.0 µM

Below, each entry is followed by its recorded solubility kinetic result.
CSc1ncc(C(=O)Nc2ccc(C(C)=O)cc2)c(C)n1    > 45.2 µg/mL
Cc1noc(C)c1CSCC(=O)Nc1cccc(C(F)(F)F)c1    > 51.7 µg/mL
Cc1cccc(-n2c(=O)c3c(C)c(C)sc3n(CC(N)=O)c2=O)c1    > 51.5 µg/mL
COc1ccccc1NC(=O)C1CCCN(c2cnccn2)C1 (stereo not given)    > 46.9 µg/mL

Recorded solubility kinetic (compound Cc1ccc(C(=O)C2=C(O)C(=O)N(Cc3ccco3)C2c2cccc(Cl)c2)o1 (stereo not given) ): > 59.7 µg/mL

###

# solubility kinetic per entry
settings: buffer; pH 7.4; 200.0 µM

C=C(C)c1cccc(C(C)(C)NC(=O)Nc2nncs2)c1    > 45.4 µg/mL
CN(C(=O)COC(=O)c1ccc2ccccc2n1)C1CCCCC1    > 49 µg/mL
Cc1ccccc1C(=O)NC(C(N)=O)P(=O)(OC(C)C)OC(C)C (configuration not stated)    > 53.5 µg/mL
N#Cc1ccc(OCc2ccc(C(=O)O)o2)cc1    > 36.5 µg/mL
O=c1cc(OCc2ccccc2)cc[nH]1    > 30.2 µg/mL

For this molecule ( COCc1nnc(NC(=O)C2CC(=O)N(C3CCCCC3)C2)s1 (configuration not stated) ), measured solubility kinetic is > 50.8 µg/mL

What the record says about O=C(CN1C(=O)NC(c2ccccc2)(c2ccccc2)C1=O)NCCNCCO : solubility kinetic is > 59.5 µg/mL

Data point: Cc1ccc(C(=O)NCC(=O)NCC(c2cccs2)N(C)C)cc1C (configuration not stated) ; solubility kinetic = > 53.9 µg/mL

The recorded solubility kinetic for entry Cc1ccc(Cl)c(N/C=C/C(=O)c2ccccc2)c1 equals < 0.6 µg/mL

The molecule listed as COc1ccccc1C(=O)Nc1cccc2cccnc12 shows solubility kinetic equal to < 0.3 µg/mL

Measured values drawn from PubChem BioAssay AID1996 for this set.
